Target system: FAK (Homo sapiens, UniProt Q05397)
Construct: homozygous knock-in of a HiBiT tag (Promega Corporation, Madison, WI) to the C-terminus of the FAK gene in its natural genomic locus; endogenous in cells; host or cells: JHH-4-FAK-HiBiT clone d01 (CRISPR-Cas9 knock-in at the endogenous locus)
Sequence (Q05397 whole entry): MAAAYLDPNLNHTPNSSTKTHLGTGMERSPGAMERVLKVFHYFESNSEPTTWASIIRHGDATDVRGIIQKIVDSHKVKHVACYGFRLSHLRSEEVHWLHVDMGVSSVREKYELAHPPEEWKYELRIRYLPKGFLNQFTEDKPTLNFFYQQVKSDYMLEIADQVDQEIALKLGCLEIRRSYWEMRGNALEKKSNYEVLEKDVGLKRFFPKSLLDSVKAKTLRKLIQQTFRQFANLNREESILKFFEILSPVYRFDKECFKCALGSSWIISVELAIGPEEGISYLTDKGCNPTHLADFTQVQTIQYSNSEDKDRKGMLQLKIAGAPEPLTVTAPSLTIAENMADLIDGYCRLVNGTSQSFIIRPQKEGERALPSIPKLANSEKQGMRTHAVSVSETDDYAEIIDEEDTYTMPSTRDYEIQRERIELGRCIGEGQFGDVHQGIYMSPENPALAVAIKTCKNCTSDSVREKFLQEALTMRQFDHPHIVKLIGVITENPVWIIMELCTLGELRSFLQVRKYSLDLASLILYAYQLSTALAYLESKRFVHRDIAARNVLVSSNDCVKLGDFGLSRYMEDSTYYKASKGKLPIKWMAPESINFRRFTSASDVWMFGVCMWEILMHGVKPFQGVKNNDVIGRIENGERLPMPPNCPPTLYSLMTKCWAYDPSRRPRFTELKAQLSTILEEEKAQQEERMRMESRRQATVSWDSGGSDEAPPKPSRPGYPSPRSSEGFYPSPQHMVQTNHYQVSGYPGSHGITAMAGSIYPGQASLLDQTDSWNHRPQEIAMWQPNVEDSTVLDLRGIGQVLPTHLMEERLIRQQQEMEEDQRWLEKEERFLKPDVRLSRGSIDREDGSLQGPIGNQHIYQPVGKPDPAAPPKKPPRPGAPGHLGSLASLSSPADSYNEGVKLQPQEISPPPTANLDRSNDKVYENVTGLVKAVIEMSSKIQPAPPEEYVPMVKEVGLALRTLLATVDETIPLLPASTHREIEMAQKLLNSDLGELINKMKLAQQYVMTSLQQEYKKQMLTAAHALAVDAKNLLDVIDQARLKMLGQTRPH
Assay remarks: FAK-HiBiT Degradation Assay
Assay type: cell-based
Run parameters: lower limit of the four parameter fit (value A); Ymax derived using DMSO control; JHH-4-FAK-HiBiT cells, two hours
Quantity name: FAK HiBiT Ymin

Examples with their reported FAK HiBiT Ymin follow.
[
  {
    "Molecule": "Cc1cc(F)cnc1-c1cc(N2CC[C@H](O)C2)nc2c1cnn2Cc1ccc2c(c1)CN([C@H]1CCC(=O)NC1=O)C2=O [Example 125]",
    "FAK HiBiT Ymin": 29.00
  },
  {
    "Molecule": "CC(C)Nc1nc2c(cnn2Cc2ccc3c(c2)CN([C@H]2CCC(=O)NC2=O)C3=O)c(-c2ncc(F)cc2Cl)c1F (single isomer, unassigned) [Example 9]",
    "FAK HiBiT Ymin": 9.43
  },
  {
    "Molecule": "N#Cc1ccc(-c2cc(N3CCC3)nc3c2cnn3Cc2ccc3c(c2)CN(C2CCC(=O)NC2=O)C3=O)c(F)c1 (stereo not drawn) [Example 62]",
    "FAK HiBiT Ymin": 12.88
  },
  {
    "Molecule": "O=C1CCC(N2Cc3cc(Cn4ncc5c(-c6ncc(C(F)(F)F)cc6Cl)cc(N[C@@H]6CCOC6)nc54)ccc3C2=O)C(=O)N1 (stereo partly drawn) [Example 133]",
    "FAK HiBiT Ymin": 82.45
  }
]

A. O=C1CC[C@H](N2Cc3cc(Cn4ncc5c(-c6ncc(C(F)(F)F)cc6Cl)cc(NC6CCOCC6)nc54)ccc3C2=O)C(=O)N1 [Example 134]
B. CC(C)Nc1cc(-c2ccncc2Cl)c2cnn(Cc3ccc4c(c3)CN(C3CCC(=O)NC3=O)C4=O)c2n1 (stereo not drawn) [Example 116]
Please let me know which one, A or B , has a lower measured FAK HiBiT Ymin value. Your choice should be expressed through its label.
B
(B: 34.23, A: 91.34)

---

Target system: FAK (Homo sapiens)
Construct: homozygous knock-in of a HiBiT tag (Promega Corporation, Madison, WI) to the C-terminus of the FAK gene in its natural genomic locus; endogenous in cells; host or cells: JHH-4-FAK-HiBiT clone d01 (CRISPR-Cas9 knock-in at the endogenous locus)
Assay remarks: FAK-HiBiT Degradation Assay
Assay type: cell-based
Run parameters: lower limit of the four parameter fit (value A); Ymax derived using DMSO control; JHH-4-FAK-HiBiT cells, two hours
Quantity name: FAK HiBiT Ymin

[
  {
    "Compound": "Cc1cc(OC(C)C)cnc1-c1cc(N2CC(F)C2)nc2c1cnn2Cc1ccc2c(c1)CN(C1CCC(=O)NC1=O)C2=O (stereo not drawn) [Example 80]",
    "FAK HiBiT Ymin": 5.83
  },
  {
    "Compound": "CC(C)Nc1cc(-c2ncc(C(F)(F)F)cc2Cl)c2cnn(Cc3ccc4c(c3)CN([C@H]3CCC(=O)NC3=O)C4=O)c2n1 [Example 45]",
    "FAK HiBiT Ymin": 6.88
  },
  {
    "Compound": "O=C1CC[C@H](N2Cc3cc(Cn4ncc5c(-c6ncc(CF)cc6Cl)cc(N6CC(F)C6)nc54)ccc3C2=O)C(=O)N1 [Example 72]",
    "FAK HiBiT Ymin": 7.12
  }
]

I. N#Cc1cnc(-c2cc(N3CC[C@H](O)C3)nc3c2cnn3Cc2ccc3c(c2)CN([C@H]2CCC(=O)NC2=O)C3=O)c(F)c1 [Example 121]
II. Cc1nc2c(-c3ccc(F)cc3F)cc(N3CC(F)C3)nc2n1Cc1ccc2c(c1)CN(C1CCC(=O)NC1=O)C2=O (stereo not drawn) [Example 23]
III. N#Cc1ccc(-c2cc(N3CCC3)nc3c2c(Cl)nn3Cc2ccc3c(c2)CN(C2CCC(=O)NC2=O)C3=O)c(Cl)c1 (stereo not drawn) [Example 70]
Arrange the 3 entries by FAK HiBiT Ymin so the values rise. Your answer should be the labels, listed in the requested order.
II, III, I
(II: 7.69, III: 13.38, I: 40.50)

---

System: CAL-51 cells
Assay remarks: CAL-51 Cell Proliferation Assay
Assay type: cell-based
Run parameters: minimal percent of DMSO control observed in the concentrations tested (Ymin-obs), 120 hours
Here the recorded CAL-51 Prolif Ymin is given for each entry.
// response body must contain only the number

Example results:
[
  {
    "Compound": "O=C1CCC(N2Cc3cc(Cn4ccc5c(-c6ncc(F)cc6Cl)cc(N6CC(F)C6)nc54)ccc3C2=O)C(=O)N1 (stereo not drawn) [Example 17]",
    "CAL-51 Prolif Ymin": 28.46
  },
  {
    "Compound": "CCOc1cnc(-c2c(Cl)c(N3CC(F)C3)nc3c2cnn3Cc2ccc3c(c2)CN([C@H]2CCC(=O)NC2=O)C3=O)c(C(F)(F)F)c1 [Example 4]",
    "CAL-51 Prolif Ymin": 1.90
  },
  {
    "Compound": "O=C1CCC(N2Cc3cc(Cn4ncc5c(-c6ncc(Cl)cc6Cl)c(F)c(N6CC(F)C6)nc54)ccc3C2=O)C(=O)N1 (stereo not drawn) [Example 8]",
    "CAL-51 Prolif Ymin": 17.44
  },
  {
    "Compound": "O=C1CCC(N2Cc3cc(Cn4ncc5c(-c6ncc(C(F)(F)F)cc6Cl)cc(N6CC(F)C6)cc54)ccc3C2=O)C(=O)N1 (stereo not drawn) [Example 26]",
    "CAL-51 Prolif Ymin": 24.69
  }
]

Request the reported CAL-51 Prolif Ymin associated with CN(c1cc(-c2ncc(C(F)(F)F)cc2Cl)c2cnn(Cc3ccc4c(c3)CN([C@H]3CCC(=O)NC3=O)C4=O)c2n1)[C@H]1C[C@](C)(O)C1 [Example 107]
44.59

Fill in: CAL-51 Prolif Ymin of O=C1CCC(N2Cc3cc(Cn4ncc5c(-c6ncc(C(F)(F)F)cc6Cl)cc(N[C@@H]6CCOC6)nc54)ccc3C2=O)C(=O)N1 (stereo partly drawn) [Example 133] is ___
84.63

---

Target system: FAK (Homo sapiens)
Construct: homozygous knock-in of a HiBiT tag (Promega Corporation, Madison, WI) to the C-terminus of the FAK gene in its natural genomic locus; endogenous in cells; host or cells: JHH-4-FAK-HiBiT clone d01 (CRISPR-Cas9 knock-in at the endogenous locus)
Assay remarks: FAK-HiBiT Degradation Assay
Type: cell-based
Run parameters: JHH-4-FAK-HiBiT clone d01 cells; two hours incubation; 10-point dose response, 3-fold dilution starting at 1 μM; Nano-Glo HiBiT luminescence; read-out: FAK HiBiT EC50
Quantity name: DC50 (nM)

Solved cases (6 shown):
[
  {
    "Molecule": "Cc1nn(Cc2ccc3c(c2)CN(C2CCC(=O)NC2=O)C3=O)c2nc(N3CCC3)cc(-c3ccc(C#N)cc3Cl)c12 (stereo not shown)",
    "Target system": "FAK (Homo sapiens)",
    "DC50, nM": 3.57
  },
  {
    "Molecule": "CN(C)c1cc(-c2ccc(C#N)cc2Cl)c2cnn(Cc3ccc4c(c3)CN(C3CCC(=O)NC3=O)C4=O)c2n1 (stereo not shown)",
    "Target system": "FAK (Homo sapiens)",
    "DC50, nM": 0.67
  },
  {
    "Molecule": "CC(C)Nc1cc(-c2ncccc2Cl)c2cnn(Cc3ccc4c(c3)CN(C3CCC(=O)NC3=O)C4=O)c2n1 (stereo not shown)",
    "Target system": "FAK (Homo sapiens)",
    "DC50, nM": 73.7
  },
  {
    "Molecule": "Cc1cc(C(F)(F)F)cnc1-c1cc(N2CC(F)C2)nc2c1cnn2Cc1ccc2c(c1)CN(C1CCC(=O)NC1=O)C2=O (stereo not shown)",
    "Target system": "FAK (Homo sapiens)",
    "DC50, nM": 0.71
  },
  {
    "Molecule": "CC(C)Nc1cc(-c2ccc(C#N)cc2Cl)c2cnn(Cc3ccc4c(c3)CN(C3CCC(=O)NC3=O)C4=O)c2n1 (stereo not shown)",
    "Target system": "FAK (Homo sapiens)",
    "DC50, nM": 5.19
  },
  {
    "Molecule": "O=C1CC[C@H](N2Cc3cc(Cn4ncc5c(-c6ccc(F)cc6F)cc(N6CC(F)C6)nc54)ccc3C2=O)C(=O)N1",
    "Target system": "FAK (Homo sapiens)",
    "DC50, nM": 0.72
  }
]

1. O=C1CCC(N2Cc3cc(Cn4ncc5c(-c6ncc(Cl)cc6Cl)cc(N6CC(F)C6)nc54)ccc3C2=O)C(=O)N1 (stereo not shown)
2. N#Cc1ccc(-c2cc(N3CC(F)C3)nc3c2cnn3Cc2ccc3c(c2)CN(C2CCC(=O)NC2=O)C3=O)c(F)c1 (stereo not shown)
3. O=C1CC[C@H](N2Cc3cc(Cn4ncc5c(-c6ncc(C(F)(F)F)cc6Cl)cc(N6CCC(O)C6)nc54)ccc3C2=O)C(=O)N1 (stereo in doubt)
4. O=C1CCC(N2Cc3cc(Cn4ncc5c(-c6ccc(C(F)(F)F)cc6Cl)cc(N6CC(F)C6)nc54)ccc3C2=O)C(=O)N1 (stereo not shown)
Let's sort these by DC50, smallest first. Go ahead? Give me the labels in the order the question wants.
1, 4, 2, 3
(1: 0.97 nM, 4: 1.87 nM, 2: 5.67 nM, 3: 37.9 nM)
